- system_tested: Solute carrier organic anion transporter family member 1B1 (Homo sapiens, UniProt Q9Y6L6)
- Sequence (Q9Y6L6 whole entry): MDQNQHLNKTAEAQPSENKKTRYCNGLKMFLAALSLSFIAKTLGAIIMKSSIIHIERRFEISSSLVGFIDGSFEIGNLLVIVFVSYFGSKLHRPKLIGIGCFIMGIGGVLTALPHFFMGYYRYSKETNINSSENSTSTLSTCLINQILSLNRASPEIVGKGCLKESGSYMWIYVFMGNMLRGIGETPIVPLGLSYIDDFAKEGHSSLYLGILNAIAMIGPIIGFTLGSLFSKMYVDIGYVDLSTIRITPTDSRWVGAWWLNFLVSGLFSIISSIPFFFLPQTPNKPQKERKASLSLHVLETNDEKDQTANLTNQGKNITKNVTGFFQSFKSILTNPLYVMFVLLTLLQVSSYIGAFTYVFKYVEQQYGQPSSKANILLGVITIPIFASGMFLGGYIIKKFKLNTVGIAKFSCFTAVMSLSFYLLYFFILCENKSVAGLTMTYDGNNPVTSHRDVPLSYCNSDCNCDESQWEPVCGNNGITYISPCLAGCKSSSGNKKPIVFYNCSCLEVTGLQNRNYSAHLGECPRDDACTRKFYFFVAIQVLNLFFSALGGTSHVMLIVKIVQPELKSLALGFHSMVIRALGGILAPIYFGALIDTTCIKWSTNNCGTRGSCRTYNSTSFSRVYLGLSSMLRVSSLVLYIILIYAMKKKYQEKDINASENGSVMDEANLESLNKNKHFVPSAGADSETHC
- experimental_context: chinese hamster, cho, 10 µM
measure_name: residual activity (%)

• Cc1onc(-c2ccccc2Cl)c1C(=O)N[C@@H]1C(=O)N2[C@@H]1SC(C)(C)[C@@H]2C(=O)[O-].O.[Na+] [CLOXACILLIN SODIUM] = 47.3
• OCc1ccccc1O[C@@H]1O[C@H](CO)[C@@H](O)[C@H](O)[C@H]1O [SALICIN] = 85.64
• CC(=O)O[C@H]1CC[C@@]2(C)[C@@H](CC[C@H]3[C@@H]4CC=C(C(C)=O)[C@@]4(C)C(=O)C[C@@H]32)C1 = 81.91
• CC1(C)C=Cc2c(cc3occ(-c4ccc5c(c4)OCO5)c(=O)c3c2O)O1 [ROBUSTONE] = 102.3
• CCN1CCCC(OC(=O)C(c2ccccc2)c2ccccc2)C1.Cl (stereo not drawn) [PIPERIDOLATE HYDROCHLORIDE] = 65.65
• Cc1cccc2c3c(ccc12)C1=C(C(=O)C3=O)[C@@H](C)CO1 [DIHYDROTANSHINONE I] = 111.4
• COP(=S)(OC)Oc1ccc(Sc2ccc(OP(=S)(OC)OC)cc2)cc1 [TEMEFOS] = 144.3
• CS(=O)(=O)CCCCN=C=S [ERYSOLIN] = 108.6
